# Test system: HT-1080 cells
# assay: Clonogenic assay with Cs-137 gamma radiation, HT-1080
# Format: cell-based
# runParameters: HT-1080 cells; inducer concentration (300 nM IKE, 20 nM RSL3, 1 nM staurosporine, 2 nM doxorubicin, 300 nM rapamycin, 100 ng/mL TNF + 20 μM Z-VAD-FMK + 300 nM birinapant); CDI<1 synergy
Field: label. Allowed values: yes (1) (CDI with 2 Gy IR < 0.9) or no (0) (CDI with 2 Gy IR >= 0.9).

Some solved cases for reference:
CC(C)Oc1ccc(C(=O)Cn2ccnc2)cc1-n1c(CN2CCN(C(=O)COc3ccc(Cl)cc3)CC2)nc2ccccc2c1=O
yes (1)
COc1cccc2c1C(=O)c1c(O)c3c(c(O)c1C2=O)C[C@@](O)(C(=O)CO)C[C@@H]3O[C@H]1C[C@H](N)[C@H](O)[C@H](C)O1
no (0)
COC(=O)c1ccc([C@@H]2c3[nH]c4ccccc4c3C[C@@H](C(=O)OC)N2C(=O)CCl)cc1 [RSL3, Ras Synthetic Lethal 3]
yes (1)

Hi there! Is CDI with 2 Gy IR for "CN[C@@H]1C[C@H]2O[C@@](C)([C@@H]1OC)n1c3ccccc3c3c4c(c5c6ccccc6n2c5c31)C(=O)NC4" below 0.9, do you know?
no (0)
